Biological target: Human BACE-1 (Homo sapiens, UniProt P56817)
Sequence (P56817 46-457 limits assumed): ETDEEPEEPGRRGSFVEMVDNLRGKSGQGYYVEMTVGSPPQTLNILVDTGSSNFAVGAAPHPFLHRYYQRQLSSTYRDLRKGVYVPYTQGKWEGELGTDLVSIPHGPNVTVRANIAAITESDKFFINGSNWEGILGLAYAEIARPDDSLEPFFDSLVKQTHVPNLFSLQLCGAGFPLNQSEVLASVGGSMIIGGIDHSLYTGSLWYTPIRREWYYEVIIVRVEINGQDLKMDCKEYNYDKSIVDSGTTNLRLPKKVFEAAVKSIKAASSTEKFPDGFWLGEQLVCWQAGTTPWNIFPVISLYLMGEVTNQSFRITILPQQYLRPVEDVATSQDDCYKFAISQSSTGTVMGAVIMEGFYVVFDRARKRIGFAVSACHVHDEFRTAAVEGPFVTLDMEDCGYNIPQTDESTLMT
Experiment: Test 1: Inhibition of Human BACE-1
Conditions: mean IC50 values in Test 1; recombinant BACE-1, pH 4.5
Structures can show the parent of a compound that is named as a salt.
metric name: IC50 (nM)

compound | metric name | numeric readout
C[C@@]1(c2cc(NC(=O)c3ncc(C(F)F)nc3N)ccc2F)CO[C@@](C)(C(F)(F)F)C(N)=N1 | IC50 | 10
[2H]C([2H])([2H])Oc1cnc(C(=O)Nc2ccc(F)c([C@]3(C(F)F)COCC(N)=N3)c2)c(N)n1 | IC50 | 25
Cc1cc(C(F)F)cnc1C(=O)Nc1ccc(F)c([C@]2(C(F)F)COCC(N)=N2)c1 [Example 8, hydrochloride] | IC50 | 54
N#Cc1cnc(C(=O)Nc2ccc(F)c([C@]3(C(F)F)COCC(N)=N3)c2)c(N)c1 | IC50 | 18
C[C@@]1(c2cc(NC(=O)c3ncc(C(F)F)cc3N)ccc2F)CO[C@@](C)(C(F)(F)F)C(N)=N1 | IC50 | 14

[P] N#Cc1cnc(C(=O)Nc2ccc(F)c([C@]3(CF)COC(CF)(CF)C(N)=N3)c2)c(Cl)c1
[Q] [2H]c1nc(C(=O)Nc2cc(F)c(F)c([C@]3(C(F)F)COCC(N)=N3)c2)c(C([2H])([2H])[2H])c([2H])c1Cl
Looking only at measured IC50, which entry is lower, P or Q ? Label of pick, please.
Q
(Q: 14 nM, P: 24 nM)

====

Target: Human BACE-1 (Homo sapiens)
Experiment: Test 1: Inhibition of Human BACE-1
Conditions: mean IC50 values in Test 1; recombinant BACE-1, pH 4.5
pIC50: −log10 of the molar value. Counter-ions that a name gives are not always drawn.
metric name: pIC50

compound | numeric readout
Cc1cc(OC(F)F)cnc1C(=O)Nc1ccc(F)c([C@]2(C)CO[C@@](C)(C(F)(F)F)C(N)=N2)c1 [Example 24, hydrochloride] | 7.85
COc1ccc(C(=O)Nc2ccc(F)c([C@]3(C)CO[C@@](C)(C(F)(F)F)C(N)=N3)c2)c(N)n1 | 6.66
[2H]C([2H])([2H])Oc1cnc(C(=O)Nc2ccc(F)c([C@]3(C)CO[C@@](C)(C(F)(F)F)C(N)=N3)c2)c(C)c1 | 7.55

[A] [2H]C([2H])([2H])OC([2H])([2H])c1cc2c(Cl)c[nH]c2nc1C(=O)Nc1ccc(F)c([C@]2(C)CO[C@@](C)(C(F)(F)F)C(N)=N2)c1
[B] [2H]C([2H])([2H])Oc1cnc(C(=O)Nc2cc(F)c(F)c([C@]3(C(F)F)COCC(N)=N3)c2)c(Cl)c1
Looking only at measured pIC50, which entry is lower, A or B ? Label of pick, please.
B

[a] Cc1cc(C(F)F)cnc1C(=O)Nc1ccc(F)c([C@]2(C)CO[C@@](C)(C(F)(F)F)C(N)=N2)c1 [Example 27, hydrochloride]
[b] NC1=N[C@@](c2cc(NC(=O)c3ncc(C(F)F)cc3N)ccc2F)(C(F)F)COC1
Short answer wanted: higher pIC50, a or b ? Label of pick, please.
a
(a: 7.80, b: 7.42)

====

Tested on: Cellular Release of Amyloid Peptide 1-40
Experiment: Test 4: Inhibition of Cellular Release of Amyloid Peptide 1-40
Type: cell-based, Chinese hamster
Conditions: Cricetulus griseus, 24 h; read-out: Amyloid-β1-40 release IC50
metric name: IC50 (nM)

[P] Cc1cc(C#N)cnc1C(=O)Nc1ccc(F)c([C@]2(CF)COC(CF)(CF)C(N)=N2)c1
[Q] [2H]C([2H])([2H])Oc1cnc(C(=O)Nc2cc(F)c(F)c([C@]3(C(F)F)COCC(N)=N3)c2)c(Cl)c1
[R] [2H]C([2H])([2H])OC([2H])([2H])c1cc2c(Cl)c[nH]c2nc1C(=O)Nc1ccc(F)c([C@]2(C)CO[C@@](C)(C(F)(F)F)C(N)=N2)c1
[S] C[C@@]1(c2cc(NC(=O)c3ncc(C(F)F)nc3N)ccc2F)CO[C@@](C)(C(F)(F)F)C(N)=N1
Order by IC50, smallest first, the items presented above. Reply format: the labels, ordered as requested.
S, P, Q, R
